OUTCOME_MEASURE: melting point (°C)

[[record]]
structure_as_smiles = "O=S(=O)(Nc1ccc2[nH]nc(-c3ccccc3)c2c1)c1cccnc1"
outcome_measure = "melting point"
measure_unit = "°C"
measured = 225

[[record]]
structure_as_smiles = "CS(=O)(=O)c1ccccc1S(=O)(=O)Nc1ccc2[nH]nc(-c3cccs3)c2c1"
outcome_measure = "melting point"
measure_unit = "°C"
measured = 246

[[record]]
structure_as_smiles = "Nc1ccc(S(=O)(=O)Nc2ccc3[nH]nc(-c4ccccc4)c3c2)cc1"
outcome_measure = "melting point"
measure_unit = "°C"
measured = 249


###

# TARGET_OR_TEST_SYSTEM: human FAK (Homo sapiens, UniProt Q05397)
# Construct: The complete cDNA of human FAK; made in house; host or cells: baculovirus expression system (vector pFastBac HTc)
# Sequence (Q05397 whole entry): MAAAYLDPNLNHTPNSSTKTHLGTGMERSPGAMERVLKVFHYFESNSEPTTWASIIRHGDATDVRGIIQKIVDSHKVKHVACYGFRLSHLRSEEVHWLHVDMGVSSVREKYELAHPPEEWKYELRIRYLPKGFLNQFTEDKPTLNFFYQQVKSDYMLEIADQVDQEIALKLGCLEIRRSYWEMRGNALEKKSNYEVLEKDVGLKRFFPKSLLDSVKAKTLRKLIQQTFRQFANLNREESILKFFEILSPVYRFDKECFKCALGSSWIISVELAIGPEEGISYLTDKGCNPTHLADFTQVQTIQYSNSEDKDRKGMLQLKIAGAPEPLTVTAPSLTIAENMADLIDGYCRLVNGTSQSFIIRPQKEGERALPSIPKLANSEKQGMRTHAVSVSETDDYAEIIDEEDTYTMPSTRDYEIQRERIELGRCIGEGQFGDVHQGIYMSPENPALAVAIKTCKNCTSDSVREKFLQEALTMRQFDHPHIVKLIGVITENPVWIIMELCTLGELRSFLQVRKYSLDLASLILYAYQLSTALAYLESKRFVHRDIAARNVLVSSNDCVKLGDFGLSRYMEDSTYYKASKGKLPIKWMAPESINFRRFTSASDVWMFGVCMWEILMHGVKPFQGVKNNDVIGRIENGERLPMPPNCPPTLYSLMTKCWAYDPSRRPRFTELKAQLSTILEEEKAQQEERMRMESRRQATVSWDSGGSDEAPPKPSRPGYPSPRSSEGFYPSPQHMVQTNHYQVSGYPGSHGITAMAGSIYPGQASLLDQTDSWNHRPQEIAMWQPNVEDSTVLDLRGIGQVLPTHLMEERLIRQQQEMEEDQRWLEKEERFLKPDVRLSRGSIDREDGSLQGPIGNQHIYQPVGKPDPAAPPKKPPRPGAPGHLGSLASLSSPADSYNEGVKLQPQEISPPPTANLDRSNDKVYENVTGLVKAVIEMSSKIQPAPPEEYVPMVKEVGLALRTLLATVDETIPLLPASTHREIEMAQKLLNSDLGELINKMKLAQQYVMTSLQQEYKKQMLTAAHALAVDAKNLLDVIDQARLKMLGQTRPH
# PROTOCOL_TEXT: FAK autophosphorylation inhibition, time resolved fluorescence (HTRF) assay
# Assay type: biochemical
# PARTICULARS: 10 μM (values without asterisk); read-out: FAK % inhib at 10 μM
# Description: The inhibitory activity of the compounds on FAK is determined by measuring the inhibition of the autophosphorylation of the enzyme using a time resolved fluorescence (HTRF) assay. […] The kinase activity is determined by incubating the enzyme (6.6 μg/ml) with various concentrations of test compound in a 50 mM Hepes buffer, pH=7.2, containing 10 mM MgCl2, 100 μM Na3VO4 and 15 μM d'ATP for 1 hour at 37° C. […] The long-lived signal specific for XL-665 is measured in a Packard Discovery plate counter. […]
OUTCOME_MEASURE: inhibition at 10 µM (%)

[[record]]
structure_as_smiles = "Cc1ccccc1S(=O)(=O)Nc1ccc2[nH]nc(-c3ccccc3)c2c1"
target_or_test_system = "human FAK (Homo sapiens, UniProt Q05397)"
measure_unit = "%"
measured = 51

[[record]]
structure_as_smiles = "O=S(=O)(Nc1cccc(F)c1)c1ccc2[nH]ncc2c1"
target_or_test_system = "human FAK (Homo sapiens, UniProt Q05397)"
measure_unit = "%"
measured = 59

[[record]]
structure_as_smiles = "COc1ccc(OC)c(S(=O)(=O)Nc2ccc3[nH]nc(-c4ccccc4)c3c2)c1"
target_or_test_system = "human FAK (Homo sapiens, UniProt Q05397)"
measure_unit = "%"
measured = 64

[[record]]
structure_as_smiles = "CS(=O)(=O)c1ccccc1S(=O)(=O)Nc1ccc2[nH]nc(C(=O)Nc3ccccc3)c2c1"
target_or_test_system = "human FAK (Homo sapiens, UniProt Q05397)"
measure_unit = "%"
measured = 89

[[record]]
structure_as_smiles = "CC(C)(C)c1ccc(-c2n[nH]c3ccc(NS(=O)(=O)c4ccccc4S(C)(=O)=O)cc23)cc1"
target_or_test_system = "human FAK (Homo sapiens, UniProt Q05397)"
measure_unit = "%"
measured = 43

[[record]]
structure_as_smiles = "COc1ccc(-c2n[nH]c3ccc(NS(=O)(=O)c4ccccc4S(C)(=O)=O)cc23)cc1"
target_or_test_system = "human FAK (Homo sapiens, UniProt Q05397)"
measure_unit = "%"
measured = 97

[[record]]
structure_as_smiles = "CCCS(=O)(=O)Nc1ccc2[nH]nc(-c3ccccc3)c2c1"
target_or_test_system = "human FAK (Homo sapiens, UniProt Q05397)"
measure_unit = "%"
measured = 55

[[record]]
structure_as_smiles = "CC(=O)Nc1n[nH]c2ccc(NS(=O)(=O)c3cccc(F)c3)cc12"
target_or_test_system = "human FAK (Homo sapiens, UniProt Q05397)"
measure_unit = "%"
measured = 84

